Reference source for all entries: patent US11779531B2

The following substances are shown together with reported TNF-α DECREASE values.
tested on: TNF-α secretion in THP1 cells; assay: TNF-α secretion by LPS-stimulated THP-1 differentiated cells after synthetic peptide treatment (Biolegend ELISA); assay type: cell-based, human; details: THP-1 cells, synthetic peptide 100, 10 or 1 ng/ml for 24 h, then 10 ng/ml LPS 5 h; vs untreated control; concentration behind the value not stated
METRIC: TNF-α DECREASE (%)

>  <SUBSTANCE>
76 (EDDEEEEQGEEEINK) [compound 76]

>  <ASSAY_SYSTEM>
TNF-α secretion in THP1 cells

>  <VALUE_UNIT>
%

>  <TEST_RESULT>
9

$$$$
>  <SUBSTANCE>
352 (LDALEPDNR) [compound 352]

>  <ASSAY_SYSTEM>
TNF-α secretion in THP1 cells

>  <VALUE_UNIT>
%

>  <TEST_RESULT>
23

$$$$
>  <SUBSTANCE>
351 (HGPVEMPYTLLYPSSK) [compound 351]

>  <ASSAY_SYSTEM>
TNF-α secretion in THP1 cells

>  <VALUE_UNIT>
%

>  <TEST_RESULT>
18

$$$$
>  <SUBSTANCE>
75 (LSSGDVFVIPAGHPVAVK) [compound 75]

>  <ASSAY_SYSTEM>
TNF-α secretion in THP1 cells

>  <VALUE_UNIT>
%

>  <TEST_RESULT>
11

$$$$
>  <SUBSTANCE>
345 (IDGYDTPVEGR) [compound 345]

>  <ASSAY_SYSTEM>
TNF-α secretion in THP1 cells

>  <VALUE_UNIT>
%

>  <TEST_RESULT>
23

$$$$
>  <SUBSTANCE>
349 (TVFDGVLRPGQL) [compound 349]

>  <ASSAY_SYSTEM>
TNF-α secretion in THP1 cells

>  <VALUE_UNIT>
%

>  <TEST_RESULT>
6

$$$$
>  <SUBSTANCE>
420 (RLQSQNDQRGEIIHVK) [compound 420]

>  <ASSAY_SYSTEM>
TNF-α secretion in THP1 cells

>  <VALUE_UNIT>
%

>  <TEST_RESULT>
80

$$$$
>  <SUBSTANCE>
85 (SKPHTIFLPQHTDADYILVVLSGK) [compound 85]

>  <ASSAY_SYSTEM>
TNF-α secretion in THP1 cells

>  <VALUE_UNIT>
%

>  <TEST_RESULT>
80

$$$$
>  <SUBSTANCE>
320 (RGPQQYAEWQINE) [compound 320]

>  <ASSAY_SYSTEM>
TNF-α secretion in THP1 cells

>  <VALUE_UNIT>
%

>  <TEST_RESULT>
13

$$$$
>  <SUBSTANCE>
341 (RGPQQYA) [compound 341]

>  <ASSAY_SYSTEM>
TNF-α secretion in THP1 cells

>  <VALUE_UNIT>
%

>  <TEST_RESULT>
21

$$$$
>  <SUBSTANCE>
346 (NGVLRPGQL) [compound 346]

>  <ASSAY_SYSTEM>
TNF-α secretion in THP1 cells

>  <VALUE_UNIT>
%

>  <TEST_RESULT>
18

$$$$
>  <SUBSTANCE>
339 (QSFLLSGNQNQQ) [compound 339]

>  <ASSAY_SYSTEM>
TNF-α secretion in THP1 cells

>  <VALUE_UNIT>
%

>  <TEST_RESULT>
26

$$$$
>  <SUBSTANCE>
105 (PSYEKQEDEEEKQK) [compound 105]

>  <ASSAY_SYSTEM>
TNF-α secretion in THP1 cells

>  <VALUE_UNIT>
%

>  <TEST_RESULT>
9

$$$$
>  <SUBSTANCE>
344 (GYYGEQQQQPGMTR) [compound 344]

>  <ASSAY_SYSTEM>
TNF-α secretion in THP1 cells

>  <VALUE_UNIT>
%

>  <TEST_RESULT>
20

$$$$
>  <SUBSTANCE>
144 (SIFRALPND) [compound 144]

>  <ASSAY_SYSTEM>
TNF-α secretion in THP1 cells

>  <VALUE_UNIT>
%

>  <TEST_RESULT>
16

$$$$
>  <SUBSTANCE>
93 (QLEELSK) [compound 93]

>  <ASSAY_SYSTEM>
TNF-α secretion in THP1 cells

>  <VALUE_UNIT>
%

>  <TEST_RESULT>
14

$$$$
>  <SUBSTANCE>
91 (PGQLQSFLLSGNQNQQNYLSGFSK) [compound 91]

>  <ASSAY_SYSTEM>
TNF-α secretion in THP1 cells

>  <VALUE_UNIT>
%

>  <TEST_RESULT>
80

$$$$
>  <SUBSTANCE>
92 (FFELTPEKNQQLQDLDLFVNSVDLK) [compound 92]

>  <ASSAY_SYSTEM>
TNF-α secretion in THP1 cells

>  <VALUE_UNIT>
%

>  <TEST_RESULT>
13

$$$$
